Reported B-score binding assay values for the following compounds.
- target.entity: human NTCP (Homo sapiens)
- assay.remarks: Screening fluorescent competitive Myrcludex B-FITC binding assay (96-well, 10 µM drug)
- test.conditions: screen, 10 µM drug, Myrcludex B-FITC binding
Counter-ions that a name gives are not always drawn.
observed.property: B-score binding assay

compound	observed.property	observed.measurement
Nc1cc(-c2ccncc2)c[nH]c1=O	B-score binding assay	-0.056
CCN(CCCc1ccccc1)CCCc1ccccc1.O=C(O)CC(O)(CC(=O)O)C(=O)O [Alverine citrate salt]	B-score binding assay	-0.052
Nc1nc(=O)c2nc(CNc3ccc(C(=O)N[C@@H](CCC(=O)O)C(=O)O)cc3)cnc2[nH]1	B-score binding assay	-0.117
O=C(CCCN1CCC(n2c(O)nc3ccccc32)CC1)c1ccc(F)cc1	B-score binding assay	-1.201
CCN[C@H]1C[C@H](C)S(=O)(=O)c2sc(S(N)(=O)=O)cc21 [Dorzolamide hydrochloride]	B-score binding assay	-0.624
Cl.Cl.Fc1ccc(C(OCCN2CCN(CCCc3ccccc3)CC2)c2ccc(F)cc2)cc1 [GBR 12909 dihydrochloride]	B-score binding assay	-0.172
COC(=O)Nc1nc2ccc(C(=O)c3ccccc3)cc2[nH]1	B-score binding assay	-0.531
CN(C)CCOC(c1ccc(Cl)cc1)c1ccccn1.O=C(O)/C=C\C(=O)O (stereo not drawn) [Carbinoxamine maleate salt]	B-score binding assay	-1.565
CCCCCCNC(=O)n1cc(F)c(=O)[nH]c1=O	B-score binding assay	0.877
Nc1ncnc2c1ncn2[C@@H]1O[C@H](CO)[C@@H](O)[C@@H]1O	B-score binding assay	1.523
CCCCOc1cc(C(=O)OCCN(CC)CC)ccc1N [Benoxinate hydrochloride]	B-score binding assay	-1.11
CCCCC(O)c1ccccc1 (stereo not drawn)	B-score binding assay	-0.138
c1ccc(CNc2ncnc3[nH]cnc23)cc1	B-score binding assay	-1.308
CC(=O)c1ccc2c(c1)N(CCCN(C)C)c1ccccc1S2.O=C(O)/C=C\C(=O)O [Acetopromazine maleate salt]	B-score binding assay	-2.054
CC(C)/N=c1\cc2n(-c3ccc(Cl)cc3)c3ccccc3nc-2cc1Nc1ccc(Cl)cc1	B-score binding assay	-0.74
CCCNC(C)C(=O)Nc1c(C)csc1C(=O)OC (stereo not drawn) [Articaine hydrochloride]	B-score binding assay	0.267
CCN[C@@H](C)Cc1cccc(C(F)(F)F)c1 [Dexfenfluramine hydrochloride]	B-score binding assay	-0.169
CCC[C@H](N[C@@H](C)C(=O)N1[C@H](C(=O)O)C[C@@H]2CCCC[C@@H]21)C(=O)OCC	B-score binding assay	1.021
CC(=O)CC(c1ccccc1)c1c(O)c2ccccc2oc1=O (stereo not drawn)	B-score binding assay	0.123
CCCNC(C)C(=O)Nc1ccccc1C (stereo not drawn) [Prilocaine hydrochloride]	B-score binding assay	-1.737
COC(=O)C1=C(C)NC(C)=C(C(=O)O[C@@H]2CCCN(Cc3ccccc3)C2)[C@@H]1c1cccc([N+](=O)[O-])c1.Cl (racemic) [Benidipine hydrochloride]	B-score binding assay	-0.032
C[N+]1(CCCCC[N+]2(C)CCCC2)CCCC1.O=C([O-])C(O)C(O)C(=O)O.O=C([O-])C(O)C(O)C(=O)O [Pentolinium bitartrate]	B-score binding assay	-0.512
CN1C[C@H](C(=O)N[C@]2(C)O[C@@]3(O)[C@@H]4CCCN4C(=O)[C@H](Cc4ccccc4)N3C2=O)C[C@@H]2c3cccc4[nH]cc(c34)C[C@H]21.CN1C[C@H](C(=O)N[C@]2(C)O[C@@]3(O)[C@@H]4CCCN4C(=O)[C@H](Cc4ccccc4)N3C2=O)C[C@@H]2c3cccc4[nH]cc(c34)C[C@H]21.O=C(O)C(O)C(O)C(=O)O [Dihydroergotamine tartrate]	B-score binding assay	-1.57
Nc1ccc(C(=O)O)c(O)c1	B-score binding assay	-0.683
CN[C@H]1CC[C@@H](c2ccc(Cl)c(Cl)c2)c2ccccc21	B-score binding assay	-1.357
CCCC[N+]1(C)[C@@H]2C[C@@H](OC(=O)[C@H](CO)c3ccccc3)C[C@H]1[C@@H]1O[C@@H]12.[Br-] (stereo partly drawn) [Butylscopolammonium (n-) bromide]	B-score binding assay	-0.108
Cc1c(N(C)CS(=O)(=O)[O-])c(=O)n(-c2ccccc2)n1C.[Na+]	B-score binding assay	-0.963
C[C@H]1O[C@@H](O[C@H]2[C@@H](O)C[C@H](O[C@H]3[C@@H](O)C[C@H](O[C@H]4CC[C@@]5(C)[C@H](CC[C@@H]6[C@@H]5C[C@@H](O)[C@]5(C)[C@@H](C7=CC(=O)OC7)CC[C@]65O)C4)O[C@@H]3C)O[C@@H]2C)C[C@H](O)[C@@H]1O	B-score binding assay	2.8
CN(C)CCOC(C)(c1ccccc1)c1ccccn1 (stereo not drawn) [Doxylamine succinate]	B-score binding assay	-1.318
Nc1[nH]c(=O)ncc1F	B-score binding assay	0.063

###

Reported B-score functional assay values for the following compounds.
- target.entity: human NTCP (Homo sapiens)
- Sequence (Q14973 1-349): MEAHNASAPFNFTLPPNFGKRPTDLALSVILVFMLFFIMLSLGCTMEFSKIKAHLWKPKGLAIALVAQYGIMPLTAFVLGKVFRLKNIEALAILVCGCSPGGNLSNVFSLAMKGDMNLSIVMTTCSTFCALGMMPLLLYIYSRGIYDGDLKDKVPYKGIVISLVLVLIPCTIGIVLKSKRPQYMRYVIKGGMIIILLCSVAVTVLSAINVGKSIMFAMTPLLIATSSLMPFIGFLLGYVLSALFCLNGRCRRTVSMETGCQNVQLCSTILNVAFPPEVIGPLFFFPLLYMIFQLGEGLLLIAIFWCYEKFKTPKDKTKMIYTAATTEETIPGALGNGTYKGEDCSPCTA
- assay.remarks: Screening taurocholate uptake assay (96-well, [14C]taurocholate, 10 µM drug)
- test.conditions: screening taurocholate uptake, 10 µM drug
Where a name gives a salt, the structure may show the parent alone.

compound	B-score functional assay
NS(=O)(=O)c1cc2c(cc1Cl)NCNS2(=O)=O [Hydrochlorothiazide]	0.079
CC(CN(C)C)CN1c2ccccc2CCc2ccccc21.O=C(O)/C=C\C(=O)O (centres unmarked) [Trimipramine maleate salt]	-0.962
C[C@]12CC[C@@H]3c4ccc(O)cc4CC[C@H]3[C@@H]1CC[C@@H]2O	-4.121
CC(C)(O/N=C(\C(=O)N[C@@H]1C(=O)N2C(C(=O)[O-])=C(C[n+]3ccccc3)CS[C@H]12)c1csc(N)n1)C(=O)O [Ceftazidime pentahydrate]	-1.028
CC(C)CC(N(C)C)C1(c2ccc(Cl)cc2)CCC1.Cl (centres unmarked) [Sibutramine HCl]	-0.386
O.O=C1C(O)=C(O)C(=O)C(O)=C1O [Tetrahydroxy-1,4-quinone hydrate]	-0.017
CCOc1ccc2ccccc2c1C(=O)N[C@@H]1C(=O)N2[C@@H]1SC(C)(C)[C@@H]2C(=O)O [Nafcillin sodium salt monohydrate]	0.036
Cc1cccc(N(C)C(=S)Oc2ccc3ccccc3c2)c1 [Tolnaftate]	6.72
CC(C)(C)NC[C@@H](O)COc1cccc2c1CCCC2=O.Cl [(+) -Levobunolol hydrochloride]	-1.002
Cl.Cl.OCCN1CCN(CC/C=C2/c3ccccc3Sc3ccc(Cl)cc32)CC1 [Zuclopenthixol dihydrochloride]	-0.306
Clc1ccc(COC(Cn2ccnc2)c2ccc(Cl)cc2Cl)c(Cl)c1 (centres unmarked)	-2.763
CCCOc1ccc2nc(NC(=O)OC)[nH]c2c1	-0.538
CN[C@@H]1[C@H](O[C@H]2[C@H](O[C@H]3[C@H](O)[C@@H](O)[C@H](NC(=N)N)[C@@H](O)[C@@H]3NC(=N)N)O[C@@H](C)[C@]2(O)CO)O[C@@H](CO)[C@H](O)[C@H]1O [Dihydrostreptomycin sulfate]	-2.479
Cc1cccc(Nc2ccncc2S(=O)(=O)NC(=O)NC(C)C)c1 [Torsemide]	-1.122
C[C@H](CCC(=O)O)[C@H]1CC[C@H]2[C@@H]3CC[C@@H]4C[C@H](O)CC[C@]4(C)[C@H]3CC[C@]12C	-6.112
COC(c1ccccc1)(c1ccccc1)[C@H](Oc1nc(C)cc(C)n1)C(=O)O	-0.389
CC(=O)SCC(Cc1ccccc1)C(=O)NCC(=O)OCc1ccccc1 (centres unmarked)	-1.398
Cl.OC1CCCCC1N1CCC(c2ccccc2)CC1 (stereo not drawn) [L(-)-vesamicol hydrochloride]	-0.315
NC[C@H]1O[C@H](O[C@H]2[C@H](O)[C@@H](O[C@H]3O[C@H](CO)[C@@H](O)[C@H](N)[C@H]3O)[C@H](N)C[C@@H]2N)[C@H](N)C[C@@H]1O	-0.213
NC(=O)C[S+]([O-])C(c1ccccc1)c1ccccc1 (centres unmarked)	2.253
Cc1c(C)c2c(c(C)c1O)CCC(C)(C(=O)O)O2 (centres unmarked)	-2.983
OCCN1CCN(CCCN2c3ccccc3C=Cc3ccccc32)CC1 [Opipramol dihydrochloride]	-0.641
CCc1oc2ccccc2c1C(=O)c1cc(Br)c(O)c(Br)c1	-5.011
CS(=O)(=O)c1ccc([C@@H](O)[C@@H](CF)NC(=O)C(Cl)Cl)cc1	-0.913
CCOC(=O)c1ccc(N)cc1	-1.326
CCCCCN(C)CCC(O)(P(=O)([O-])O)P(=O)(O)O.[Na+] [Ibandronate sodium]	0.015
Cc1cc(CC(=O)[O-])n(C)c1C(=O)c1ccc(Cl)cc1.[Na+] [Zomepirac sodium salt]	-0.802
CCOc1cc(CC(=O)N[C@@H](CC(C)C)c2ccccc2N2CCCCC2)ccc1C(=O)O [Repaglinide]	-2.984
CC(C)(C)NCC(O)COc1cccc2c1CCC(=O)N2 (centres unmarked) [Carteolol hydrochloride]	-0.486
CC(C)[N+](C)(CCOC(=O)C1c2ccccc2Oc2ccccc21)C(C)C [Propantheline bromide]	-0.131
CCCCC(CC)CNC(=N)NC(=N)NCCCCCCNC(=N)NC(=N)NCC(CC)CCCC (centres unmarked) [Alexidine dihydrochloride]	-9.197
COc1cc(C)nc(-n2nc(C)cc2OC)n1 [Epirizole]	0.634
